- TARGET DESC: SARS-CoV-2 full-length spike protein on pseudotyped lentivirus (SARS-CoV-2, UniProt P0DTC2 14-1273)
- ASSAY METHOD TEXT: cell-based or functional assay
PARAMETER MEASURED: Pseudo-neutralization IC50 (ng/mL)

[[record]]
binder = "anti-SARS-CoV-2 antibody 1012 (antibody, V domains shown) VH: EVQVVESGGGLVQPGGSRRLSCTASGFTLRNYWMSWVRQAPGKGLEWVANIKQDGSEKYYVDSVKGRFTISRDNAKNSLYLQMDSLRAEDTAVYYCARGGRYCPGGSCPRWGRGTLVTVSS VL: DIQMTQSPSSLSASVGDRVTITCQASQDISNFLNWYQLKPGEAPTLLIFDASKLETGVPSRFSGTGFGTDFTFTISSLQPEDTATYYCQQYDDLTSITLGQGTRLEIK"
parameter_measured = "Pseudo-neutralization IC50"
reported_value = 6

[[record]]
binder = "anti-SARS-CoV-2 antibody 1015 (antibody, V domains shown) VH: EVQLVESGGGLVQPGGSLRLSCAASGFTFSSYWMHWVRQAPGKGLVWVSHINSDGSSTSYADSVKGRFTISRDNAKNTLYLQMNSLRAEDTAVYYCARGLRYFDLDVWGQGTTVTVSS VL: QSVLTQPPSVSEAPRQRVTISCSGSSSNIGNNAVNWYQQLPGKAPKLLIFYDDLLPSGVSDRFSGSKSGTSASLAISGLQSEDEADYYCAAWDDSLNGGVFGGGTKLTVL"
parameter_measured = "Pseudo-neutralization IC50"
reported_value = 11

